// provenance: ChEMBL document CHEMBL4296182

Tested on: Cryptococcus neoformans
DETAILS: Concentration 20 uM; ASSAY_TEST Inhibition of Fungal Growth; detection method Resazurin; Absorption (OD600-OD570); plate type 384well; NBS; CORNING #3640
Description: Antifungal activity against Cryptococcus neoformans H99 ATCC 208821 (CO-ADD:FG_002); MIC in YNB media using NBS plates, by Resazurin OD(600-570)
Entries with a potency or affinity are not part of this list.
PROPERTY_MEASURED: Inhibition
Show the value, then the unit it is measured in.

Ask | For the molecule shown here, Cc1nc(S)nc(O)c1Cc1c(O)ccc2ccccc12 , give the reported Inhibition.
Reply | -9.2%

Ask | For the molecule shown here, c1ccc(-c2nnc3oc(-c4cccs4)nn23)cc1 , give the reported Inhibition.
Reply | 28.69%

Ask | For the molecule shown here, CC(=O)NC1(C(=O)O)CCCC1 , give the reported Inhibition.
Reply | 0.8%

Ask | For the molecule shown here, CCOC(=O)Nc1c(Cl)n(C)c(=O)n(C)c1=O , give the reported Inhibition.
Reply | 20.83%

Ask | For the molecule shown here, CC1(C)OC2C(CO)OC(n3cnc4c(S)ncnc43)C2O1 (stereo not given) , give the reported Inhibition.
Reply | -14.25%

Ask | For the molecule shown here, CN(C)S(=O)(=O)c1ccccc1N=C=S , give the reported Inhibition.
Reply | -9.71%

Ask | For the molecule shown here, CNc1ncnc2c1cnn2C1CCCCO1 (stereo not given) , give the reported Inhibition.
Reply | -11.76%

Ask | For the molecule shown here, O=C(O)C1CCC(=O)N1C(=O)OCc1ccccc1 (stereo not given) , give the reported Inhibition.
Reply | -3.17%

Ask | For the molecule shown here, N#C/C(=C\c1ccc(C#N)cc1)C(=O)c1ccccc1 , give the reported Inhibition.
Reply | -10.85%

Ask | For the molecule shown here, COC(=O)CC1OCC=C2CN3CCC45C6=CC(=O)C(=O)C([N+](=O)[O-])=C6NC4C1C2CC35 (stereo not given) , give the reported Inhibition.
Reply | -2.47%

Ask | For the molecule shown here, Cn1c(=O)c2c(nc(Cc3ccccc3)n2C)n(C)c1=O , give the reported Inhibition.
Reply | -7.23%

Ask | For the molecule shown here, O=C(O)CCC1(c2ccccc2)NC(=O)NC1=O (stereo not given) , give the reported Inhibition.
Reply | -9.46%

Ask | For the molecule shown here, CC1(C)N=C(N)N=C(N)N1c1ccc(OCCCOc2ccccc2)c(Cl)c1.CCS(=O)(=O)O , give the reported Inhibition.
Reply | -3.49%

Ask | For the molecule shown here, CCCCCn1cnc2c(S)nc(N)nc21 , give the reported Inhibition.
Reply | -16.43%

Ask | For the molecule shown here, NC1=NC(Nc2ccccc2)=NC(c2ccccc2)N1 (stereo not given) , give the reported Inhibition.
Reply | -14.92%

Ask | For the molecule shown here, CC(C)c1ccc(-c2nc3ccccc3s2)cc1 , give the reported Inhibition.
Reply | -7.1%

Ask | For the molecule shown here, CC(=O)Nc1cc(NC(C)=O)ncn1 , give the reported Inhibition.
Reply | -1.27%

Ask | For the molecule shown here, CC(=O)Nc1ccc(OC(=O)Oc2ccc(NC(C)=O)cc2)cc1 , give the reported Inhibition.
Reply | -3.28%

Ask | For the molecule shown here, c1ccc(-c2nnc(-c3ccccc3)nn2)cc1 , give the reported Inhibition.
Reply | -7.33%

Ask | For the molecule shown here, CCCNC(=O)c1ccc(S(N)(=O)=O)cc1 , give the reported Inhibition.
Reply | -5.61%

Ask | For the molecule shown here, CC(=O)c1cc(O)c2ccccc2c1O , give the reported Inhibition.
Reply | 6.09%

Ask | For the molecule shown here, CCOC(=O)c1nc(O)c2c3c(sc2n1)CCCC3 , give the reported Inhibition.
Reply | -8.42%

Ask | For the molecule shown here, CCC(=Cc1ccc(CC)cn1)CC , give the reported Inhibition.
Reply | -5.56%

Ask | For the molecule shown here, Cc1cccc2cc3cccc(C)c3nc12 , give the reported Inhibition.
Reply | -5.61%

Ask | For the molecule shown here, OCc1nc2nc(Cl)c(Cl)[nH]c-2n1 , give the reported Inhibition.
Reply | -8.15%

Ask | For the molecule shown here, O=S1(=O)CCN(Cc2ccccn2)CC1 , give the reported Inhibition.
Reply | 12.19%

Ask | For the molecule shown here, COc1ccc([N+](=O)[O-])cc1NC(=O)N(C)Cc1ccco1 , give the reported Inhibition.
Reply | -10.86%

Ask | For the molecule shown here, CC(=O)NC1=C/C(=C\[N+](=O)[O-])C=C1O , give the reported Inhibition.
Reply | -2.2%

Ask | For the molecule shown here, COc1ccc(/N=C\c2c(O)ccc3c2oc2cc(Cl)c(O)c(Cl)c23)cc1 , give the reported Inhibition.
Reply | -10.03%

Ask | For the molecule shown here, O=C(O)c1nn(-c2ccccc2-c2nnc(O)nc2O)c(=O)[nH]c1=O , give the reported Inhibition.
Reply | 4.78%

Ask | For the molecule shown here, CNC(=O)Nc1ccc(S(N)(=O)=O)cc1 , give the reported Inhibition.
Reply | 0.61%

Ask | For the molecule shown here, Cc1ccc(NC(=O)Nc2c(Cl)cccc2Cl)cn1 , give the reported Inhibition.
Reply | 18.5%

Ask | For the molecule shown here, CCC(C)(C)c1ccc(Oc2cccc(C(=O)O)c2)cc1 , give the reported Inhibition.
Reply | -6.24%

Ask | For the molecule shown here, O=C(/C=C/c1ccccc1)CC(c1ccccc1)N1CCOCC1 (stereo not given) , give the reported Inhibition.
Reply | -9.56%

Ask | For the molecule shown here, CCCCC(=O)N(CCC)CCC , give the reported Inhibition.
Reply | -14.22%
